Test system: rodent lifetime carcinogenesis bioassay, tumor incidence TD50
Assay: carcinogenic potency in animals, long-term in vivo studies, CPDB compilation (AID 1745844)
Details: rat; strain F344/DuCrj; females; in drinking water; site: liver; lesion: hepatocellular adenoma; dosed 104 weeks; study length 114 weeks
Active and inactive are the calls of the source. How the calls were made is not given here.

# smi, TD50
rows = [
    ("O=C(OC[C@@H]1O[C@H](OC(=O)c2cc(O)c(O)c(OC(=O)c3cc(O)c(O)c(O)c3)c2)[C@@H](OC(=O)c2cc(O)c(O)c(OC(=O)c3cc(O)c(O)c(O)c3)c2)[C@H](OC(=O)c2cc(O)c(O)c(OC(=O)c3cc(O)c(O)c(O)c3)c2)[C@H]1OC(=O)c1cc(O)c(O)c(OC(=O)c2cc(O)c(O)c(O)c2)c1)c1cc(O)c(O)c(OC(=O)c2cc(O)c(O)c(O)c2)c1", "16000 mg/kg/day (inactive)"),
]
